Origin of values: PubChem BioAssay AID485344

target: D(2) dopamine receptor (Homo sapiens); assay: HTS Assay for Allosteric Antagonists of the Human D2 Dopamine Receptor: Primary Screen for Antagonists; settings: HEK293 TREx D2 cells, calcium flux, dopamine EC80; at 10 µM; stronger effect = higher value; further: 0% is about no effect
Out of some 340,000 compounds screened, about 6,900 (2%) were called active. The sample holds actives, similar compounds and a random draw of the others, so the mix is not that of the screen.
observation type: inhibition (%)
Lab book: enter the figure in %, no units written.

Please review the entries below; each comes with its answer.
- CC(C)(C)OC(=O)NCCCCCNC(=O)c1nc[nH]c1C(=O)NCc1ccccc1: 7.02
- COc1ccccc1NC(=O)COC(=O)COc1ccccc1F: -3.39
- Cc1csc2nc(COC(=O)c3cccc(N(C)C)c3)cc(=O)n12: -21.3
- CC(NC(=O)c1ccccc1SCC(=O)N1CCCC1)c1ccccc1 (stereo not given): 5.13

Let's switch to this molecule now.
For the record CCN(CC(=O)Nc1cc(Cl)ccc1C)C(=O)CSCc1ccc(C)cc1 , what value of inhibition is listed for D(2) dopamine receptor (Homo sapiens)?
-3.18

* * *

target: D(2) dopamine receptor (Homo sapiens) (UniProt P14416); assay: HTS Assay for Allosteric Antagonists of the Human D2 Dopamine Receptor: Primary Screen for Antagonists; details: HEK293 TREx D2 cells, calcium flux, dopamine EC80; at 10 µM; stronger effect = higher value; further: 0% is about no effect
Sequence (P14416 whole entry, looked up): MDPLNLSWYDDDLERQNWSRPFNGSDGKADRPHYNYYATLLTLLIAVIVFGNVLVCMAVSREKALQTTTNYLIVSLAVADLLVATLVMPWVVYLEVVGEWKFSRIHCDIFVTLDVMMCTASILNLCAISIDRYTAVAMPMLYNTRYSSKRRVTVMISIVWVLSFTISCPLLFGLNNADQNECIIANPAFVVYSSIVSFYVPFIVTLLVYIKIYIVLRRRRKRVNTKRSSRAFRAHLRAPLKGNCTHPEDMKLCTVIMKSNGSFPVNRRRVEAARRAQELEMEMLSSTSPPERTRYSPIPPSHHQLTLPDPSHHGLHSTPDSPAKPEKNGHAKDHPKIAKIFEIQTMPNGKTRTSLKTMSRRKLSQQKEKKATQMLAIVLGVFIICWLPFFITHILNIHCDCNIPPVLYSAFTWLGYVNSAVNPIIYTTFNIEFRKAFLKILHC
About 6,900 (2%) of roughly 340,000 compounds were called active. Only a selection was taken, and actives are over-represented in it overall.
inhibition listing for selected molecules.

Observe how each entry below is paired with its result.
* CCc1ccccc1NC(=S)N(CCN1CCCCCC1)Cc1ccco1 | -0.524% (inactive)
* Cc1ccsc1C(C(=O)NC1CCCCC1)N(C(=O)Cc1cccs1)C1CC1 (stereo not drawn) | 2.03% (inactive)
* Cc1ccc(NC(=S)N(CCN2CCCCC2)Cc2ccco2)cc1C | 50.8% (active)
* Cc1ccc(NC(=S)N(CCCN2CCC(C)CC2)Cc2ccco2)cc1 | 34.7% (active)

Request body: readout inhibition, system D(2) dopamine receptor (Homo sapiens) (UniProt P14416), query Cc1ccc(S(=O)(=O)N(CC(O)CN2CCCCC2)c2cccc([N+](=O)[O-])c2)cc1 (stereo not drawn) . Return the value.
35.8% (active)

Please do the same for O=C(O)Cc1sc(-c2ccc(C(=O)O)cc2)nc1-c1ccccc1 as well.
32.7% (active)

Repeat with CCN(CC)C(=O)CN(c1cccc([N+](=O)[O-])c1)S(=O)(=O)c1ccccc1
-8.71% (inactive)

What do we get for Cc1ccc(N(CC(O)CN2CCCC2)S(=O)(=O)c2ccccc2)cc1 (stereo not drawn) ?
-18.8% (inactive)

Another molecule: Cc1cccc(C(=O)NCC(=O)OCC(=O)N(C)CC(=O)Nc2ccccc2Cl)c1
-38.4% (inactive)

Queued: COc1ccc(C2=NN(C(=O)CSc3nnnn3C)C(c3ccco3)C2)cc1 (stereo not drawn)
-18.6% (inactive)

Try the molecule CN(C(=O)CSc1nnc(-c2ccc3c(c2)OCO3)o1)C1CCS(=O)(=O)C1 (stereo not drawn)
8.68% (inactive)

Please answer likewise for O=C(COC(=O)c1ccc(O)cc1O)NNC(=O)c1cccs1
13.6% (inactive)

Ok, now COc1ccc(-n2c(SCC(=O)NCc3ccco3)nnc2-c2c[nH]c3ccccc23)cc1
-8.02% (inactive)

Try the molecule Cc1ccc(NC(=S)N(CCCN2CCCC2)Cc2cccn2Cc2ccc(Cl)cc2)cc1
3.46% (inactive)

Same for CCCCc1ccc(NC(=O)CN2C(=O)NC(Cc3ccccc3)C2=O)cc1 (stereo not drawn)
16.7% (inactive)

Same for Cc1ccc(NC(=S)N(Cc2ccco2)C(C)c2cccs2)cc1 (stereo not drawn)
-6.52% (inactive)

Another: Cc1cc(C)n2nc(C(=O)OCC(=O)N(CCC#N)c3ccc(F)cc3)nc2n1
-5.33% (inactive)

Follow-up entry: Cc1ccc(C)c(OCC(=O)NNC(=O)C2CCC2)c1
-10.9% (inactive)

* * *

molecular target: D(2) dopamine receptor (Homo sapiens) (UniProt P14416); experiment: HTS Assay for Allosteric Antagonists of the Human D2 Dopamine Receptor: Primary Screen for Antagonists; details: HEK293 TREx D2 cells, calcium flux, dopamine EC80; at 10 µM; stronger effect = higher value; further: 0% is about no effect
The whole screen tested about 340,000 compounds, of which about 6,900 (2%) were called active. The sample holds actives, similar compounds and a random draw of the others, so the mix is not that of the screen.
observation type: inhibition

Give the measured inhibition of Cc1cccc(C)c1OCC(O)CN1CCCCC1 (configuration not stated) .
13.3% (inactive)

* * *

target: D(2) dopamine receptor (Homo sapiens) (UniProt P14416); assay: HTS Assay for Allosteric Antagonists of the Human D2 Dopamine Receptor: Primary Screen for Antagonists; conditions: HEK293 TREx D2 cells, calcium flux, dopamine EC80; at 10 µM; further: 0% is about no effect
Screen size: about 340,000 compounds; about 6,900 (2%) were called active. No stated cut-off is given here; in the data, active means inhibition above about 30%; inactive means below that, where a call was filed. For the sample, actives were picked, then their nearest neighbours and some compounds at random.
Respond using exactly one of the listed classes: y (active), n (inactive)

Use the examples below as a reference point.
* COC(=O)Cc1ccc(OCC(=O)NC2CCCC2)cc1 | n
* Cc1cc(Br)ccc1NC(=O)CN(C)C(=O)CN1C(=O)NC2(CCCC2)C1=O | n
* Clc1cccc(Cl)c1OCCOCCNCc1ccccc1 | y

Tell me the recorded outcome of this test for COc1ccc(OC)c(NC(=S)N2CCc3ccccc3C2)c1 .
n

And for COc1ccc(-c2nc(N)ncc2-c2ccc(Cl)cc2)c(O)c1 ?
n

And then Cc1ccc(NC(=O)CCC(=O)N2CCC(c3ccccc3)=N2)cc1S(=O)(=O)N1CCCCC1 , what is it?
n

// next record CNCC(O)c1ccc(O)c(O)c1 (centres undefined)
y

Repeat for the following compound: CCOCCCNCc1ccc(OCc2ccc(F)cc2)c(OC)c1
n

Then what about the compound COCCNCCOCCOc1cccc(OC)c1 ?
n

* * *

biological target: D(2) dopamine receptor (Homo sapiens); experiment: HTS Assay for Allosteric Antagonists of the Human D2 Dopamine Receptor: Primary Screen for Antagonists; settings: HEK293 TREx D2 cells, calcium flux, dopamine EC80; at 10 µM; stronger effect = higher value; further: 0% is about no effect
In all, about 340,000 compounds went through this assay and about 6,900 (2%) were called active. What follows is part of a selection rich in actives, with near analogues and random picks from the rest.
# key: entry, value: inhibition
Only the number, expressed in %, is required.

- O=C(NCCCN1CCOCC1)c1ccc(N2CCCC2)c([N+](=O)[O-])c1: -5.74
- CCN(CC)S(=O)(=O)c1ccc(OC)c(NC(=O)CCc2c(C)noc2C)c1: 5.64
- COc1ccc(CN2CCN(Cc3ccc(OC)c(OC)c3OC)CC2)cc1: -16
- O=C(NNC(=O)c1ccc(-n2cncn2)c([N+](=O)[O-])c1)c1ccccc1: 1.81
- CCN1CCCC1CNc1ncnc2c1[nH]c1ccc(F)cc12 (centres undefined): 39.5
- CC1CCN(c2nc3c(c(=O)[nH]c(=O)n3C)n2CCCc2ccccc2)CC1: -0.868
- CCOc1ccc(NC(=O)Nc2ccc(N(C)C(C)=O)cc2)cc1: 31.6
- COc1ccccc1N1CCN(Cc2ccc(OC)c3ccccc23)CC1: 72.3

Request the reported inhibition associated with CCOc1ncccc1C(=O)OCC(=O)N1c2ccccc2CC1C (centres undefined)
-9.6

Same question for O=C(CN1C(=O)NC2(CCCCC2)C1=O)N1CCN(C(=O)c2cccs2)CC1 please.
-4.48

Continue with COc1c(O)ccc2c1CN1CCc3cc4c(cc3C1C2)OCO4 (centres undefined)
74.1

Same thing, different compound: COc1ccccc1N1CCN(Cc2cc(OC)c3c(c2)OCO3)CC1
85.7

Same again, this time with Cn1c(=O)[nH]c(=O)c2c1nc(CN1CCN(c3ccccc3F)CC1)n2CCc1ccccc1
46.1

* * *

biological target: D(2) dopamine receptor (Homo sapiens) (UniProt P14416); test: HTS Assay for Allosteric Antagonists of the Human D2 Dopamine Receptor: Primary Screen for Antagonists; conditions: HEK293 TREx D2 cells, calcium flux, dopamine EC80; at 10 µM; further: 0% is about no effect
About 6,900 (2%) of roughly 340,000 compounds were called active. Rule as the data show it: active = inhibition above about 30%; inactive = below that, where a call was filed. Many of the other results were omitted from the sample, so actives are more common in it than they were.
Hello, when you answer, please use one of the following outcomes: active, inactive

• COc1cccc(C2CC(c3cccs3)=NN2C(=O)CSC2=NCCS2)c1OC (stereo unspecified) = active
• O=C(NC1CCN(Cc2ccccc2)CC1)c1ccc(Oc2cc(Cl)cc(Cl)c2)o1 = inactive
• COc1ccc(C2CC(c3cccs3)=NN2C(=O)CSc2nnc(N)s2)cc1OC (stereo unspecified) = inactive
• CC(=O)c1c(C)[nH]c(C(=O)OCC(=O)Nc2c(C)cccc2C)c1C = inactive
• CC1CCN(C(=O)COC(=O)CCC(=O)c2cccs2)CC1 = inactive

Tell me the recorded outcome of this test for COc1ccc(NC(=O)CSc2nnc(C3CC3)n2C)cc1S(=O)(=O)N1CCCCC1 .
inactive

Record: Cc1cc(C(=O)NC2CCN(Cc3ccccc3)CC2)n[nH]1
active
